B1: TPR 5TU (parent)
chain: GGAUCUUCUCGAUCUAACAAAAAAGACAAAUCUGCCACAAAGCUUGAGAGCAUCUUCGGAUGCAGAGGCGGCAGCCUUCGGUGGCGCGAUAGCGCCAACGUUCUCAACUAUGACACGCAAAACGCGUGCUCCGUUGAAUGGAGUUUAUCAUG

- Variants of: B1
- EXPERIMENT DESCRIPTION: polymerase ribozyme fitness, log enrichment relative to wild type (log ratio); higher = more active; in vitro selection for triplet polymerase activity
Fewer inactive variants are shown than the library holds.

| MUTATION KEY | VALUE RELATION SIGN | polymerase ribozyme fitness (log ratio) |
| --- | --- | --- |
| U56A U77C | = | -2.93 |
| A16U A47C U53A C85G C131A U134A G140U | ≤ | -4.2 |
| C63U C85U | = | -0.275 |
| U56A U101G | = | 0.0793 |
